molecular target: Beta-2 adrenergic receptor (Homo sapiens, UniProt P07550); assay: Displacement of [3H]dihydroalprenolol from beta2-adrenoceptor after 90 mins by liquid scintillation counting
Sequence (P07550 whole entry): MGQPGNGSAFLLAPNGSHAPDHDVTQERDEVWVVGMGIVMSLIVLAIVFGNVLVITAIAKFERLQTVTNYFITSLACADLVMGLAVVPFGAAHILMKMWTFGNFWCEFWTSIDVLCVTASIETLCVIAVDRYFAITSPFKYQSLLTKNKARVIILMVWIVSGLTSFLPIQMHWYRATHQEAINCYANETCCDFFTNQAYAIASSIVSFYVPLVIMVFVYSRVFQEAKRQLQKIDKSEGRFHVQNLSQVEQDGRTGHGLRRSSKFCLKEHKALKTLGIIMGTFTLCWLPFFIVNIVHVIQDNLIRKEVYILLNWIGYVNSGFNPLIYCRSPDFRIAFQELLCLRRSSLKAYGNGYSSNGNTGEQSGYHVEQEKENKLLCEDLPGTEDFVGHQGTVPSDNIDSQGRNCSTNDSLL
pIC50: −log10 of the molar value.
resultType: pIC50

# annotated cases, reported pIC50 shown
OC(CNCCc1ccc(NCC(O)c2ccccc2)cc1)c1ccccc1 (centres undefined) : 6.60
OCc1cc(C(O)CN[C@H]2CC[C@H](NCC(O)c3ccc(O)c(CO)c3)CC2)ccc1O (some centres undefined) : 5.30

I: OCc1cc(C(O)CNCCc2ccc(CCNCC(O)c3ccc(O)c(CO)c3)cc2)ccc1O (centres undefined)
II: CC(C)(CNCC(O)c1ccc(O)c(CO)c1)CNCC(O)c1ccc(O)c(CO)c1 (centres undefined)
q: Lab note: record which item had the higher pIC50, I or II . Refer to your chosen entry by its label in the reply.
a: I

###

molecular target: Beta-1 adrenergic receptor (Homo sapiens, UniProt P08588); test: Agonist activity at recombinant human beta1-adrenoceptor expressed in whole cells assessed as cAMP accumulation by homogeneous radioimmunoassay
Sequence (P08588 whole entry): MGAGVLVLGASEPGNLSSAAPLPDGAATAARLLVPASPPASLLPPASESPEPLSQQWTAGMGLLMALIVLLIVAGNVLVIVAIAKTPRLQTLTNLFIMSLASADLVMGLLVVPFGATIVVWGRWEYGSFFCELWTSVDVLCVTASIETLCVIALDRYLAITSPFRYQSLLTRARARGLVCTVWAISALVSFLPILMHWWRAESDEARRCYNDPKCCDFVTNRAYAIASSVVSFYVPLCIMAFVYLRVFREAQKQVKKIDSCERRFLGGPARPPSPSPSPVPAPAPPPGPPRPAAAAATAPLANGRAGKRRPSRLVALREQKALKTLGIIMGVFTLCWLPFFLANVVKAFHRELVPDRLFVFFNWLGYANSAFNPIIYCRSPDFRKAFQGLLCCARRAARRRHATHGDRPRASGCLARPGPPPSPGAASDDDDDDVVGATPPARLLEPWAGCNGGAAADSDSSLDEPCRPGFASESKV
pEC50: −log10 of the molar value.
resultType: pEC50

A: O=CNc1cc([C@@H](O)CNCCc2ccc(NC[C@H](O)c3ccccc3)cc2)ccc1O
B: OCc1cc([C@@H](O)CNCCc2ccc(NC[C@@H](O)c3ccccc3)cc2)ccc1O (mixture of isomers)
q: Lab note: record which item had the higher pEC50, A or B . Refer to your chosen entry by its label in the reply.
a: A

###

molecular target: Beta-2 adrenergic receptor (Homo sapiens); experiment: Agonist activity at recombinant human beta2-adrenoceptor expressed in whole cells assessed as cAMP accumulation by homogeneous radioimmunoassay; assay type: functional, cell-based
resultType: EC50 (nM)

# annotated cases, reported EC50 shown
OCc1cc(C(O)CNCCc2ccc(NCC(O)c3ccc(O)cc3)cc2)ccc1O (stereo not given) : 7.94
OCc1cc(C(O)CNCCc2ccc(NCC(O)c3ccc(Cl)cc3)cc2)ccc1O (stereo not given) : 1.58
COc1ccc(OC)c(C(O)CNc2ccc(CCNCC(O)c3ccc(O)c(CO)c3)cc2)c1 (stereo not given) : 6.31

I: OCc1cc(C(O)CNCCc2ccc(NCC(O)c3ccc(F)cc3)cc2)ccc1O (stereo not given)
II: CC(C)(C)c1ccc(C(O)CNc2ccc(CCNCC(O)c3ccc(O)c(CO)c3)cc2)cc1 (stereo not given)
III: OCc1cc([C@@H](O)CNCCc2ccc(NC[C@H](O)c3ccccc3)cc2)ccc1O
q: Hello, I need these entries ordered by EC50, highest reading first. Thanks! A complete answer lists every label in the requested sequence.
a: II, I, III

A: CC(C)CCc1ccc(C(O)CNc2ccc(CCNCC(O)c3ccc(O)c(CO)c3)cc2)cc1 (stereo not given)
B: CN(CC(O)c1ccccc1)c1ccc(CCNCC(O)c2ccc(O)c(CO)c2)cc1 (stereo not given)
q: Lab note: record which item had the higher EC50, A or B . Refer to your chosen entry by its label in the reply.
a: A
(A: 63.1 nM, B: 2 nM)

A: OCc1cc(C(O)CNCCc2ccc(NCC(O)c3ccc4ccccc4c3)cc2)ccc1O (stereo not given)
B: O=CNc1cc([C@@H](O)CNCCc2ccc(NC[C@H](O)c3ccccc3)cc2)ccc1O [MILVETEROL]
q: Lowest EC50? choose A or B Refer to your chosen entry by its label in the reply.
a: B
(B: 0.0631 nM, A: 50.1 nM)

1: CC(C)(Cc1ccc(NCC(O)c2ccccc2)cc1)NCC(O)c1ccc(O)c(CO)c1 (stereo not given)
2: COc1ccc(C(O)CNc2ccc(CCNCC(O)c3ccc(O)c(CO)c3)cc2)c(OC)c1 (stereo not given)
q: Lab note: record which item had the higher EC50, 1 or 2 . Refer to your chosen entry by its label in the reply.
a: 2
(2: 39.8 nM, 1: 0.316 nM)
